Give GI50 for every item shown.
System: KM12
Experiment: NCI tumour cell line growth inhibition, 48 h
The source made the active and inactive calls. No stated cut-off is given here; in the data, active = GI50 up to about 1.1 µM and inactive = higher.

Would you mind telling me what GI50 value was observed for `O=C(NC(Nc1ccc(F)c(Cl)c1)(C(F)(F)F)C(F)(F)F)C(C(F)(F)F)C(F)(F)F` ?
17.9 µM (inactive)

Would you mind telling me what GI50 value was observed for N#CC1=C(N)N(c2ccccc2)C(c2ccco2)C1(C#N)C#N (centres undefined) ?
17.4 µM (inactive)

Would you mind telling me what GI50 value was observed for `Cc1cc(NS(=O)(=O)c2ccc(NC(=O)c3cccc4c(Nc5ccc(S(N)(=O)=O)cc5)c5ccccc5nc34)cc2)no1` ?
57 µM (inactive)

Would you mind telling me what GI50 value was observed for `N#Cc1cc([N+](=O)[O-])ccc1NC(=O)C(=O)Nn1c(S)nc2ccccc2c1=O` ?
> 100 µM (inactive)

* * *

Give GI50 for every item shown.
System: SNB-19
Experiment: NCI tumour cell line growth inhibition, 48 h
Activity calls are given as the source filed them. Rule as the data show it: active = GI50 up to about 1.1 µM and inactive = higher.

Would you mind telling me what GI50 value was observed for `Cc1cc(O)nc(CNC(=O)c2cccc(C(=O)NCc3cc(O)nc(C)n3)c2)n1` ?
> 100 µM (inactive)

Would you mind telling me what GI50 value was observed for `CCOC(=O)/C(=C/c1ccccc1Br)P(=O)(OCC)OCC` ?
2.49 µM (inactive)

Would you mind telling me what GI50 value was observed for CCOP(=O)(OCC)C1CCCOC1=O (centres undefined) ?
> 100 µM (inactive)

Would you mind telling me what GI50 value was observed for `Cc1n2nc(N)sc2n[n+]1CC(=O)c1ccccc1` ?
> 100 µM (inactive)

Would you mind telling me what GI50 value was observed for CS(=O)(=O)C(C#N)c1nc2ccccc2nc1Cl (centres undefined) ?
> 100 µM (inactive)

Would you mind telling me what GI50 value was observed for COC(=O)C1=C(C(=O)OC)N(c2ccc(OC)cc2[N+](=O)[O-])C(c2ccc(C)cc2)=CC1c1ccc(OC)cc1OC (centres undefined) ?
34.7 µM (inactive)

Would you mind telling me what GI50 value was observed for `COC(=O)c1c(O)ccc2c1c1c(n2Cc2ccc(OC)cc2)C(=O)c2ccccc2C1` ?
71 µM (inactive)

Would you mind telling me what GI50 value was observed for `O=C1OC(c2ccc(O)c(F)c2)(c2ccc(O)c(F)c2)c2cccc3cccc1c23` ?
> 25 µM (inactive)

Would you mind telling me what GI50 value was observed for `O=C(CSCC(=O)N/N=C/c1cccc(OCc2ccccc2)c1)N/N=C/c1cccc(OCc2ccccc2)c1` ?
57.5 µM (inactive)

Would you mind telling me what GI50 value was observed for `NNC(=S)N1CCN(C(=S)NN)CC1` ?
> 100 µM (inactive)

Would you mind telling me what GI50 value was observed for COC(=O)C1Cc2c([nH]c3ccccc23)[C@H](CC(C)C)N1 (some centres undefined) ?
> 100 µM (inactive)

Would you mind telling me what GI50 value was observed for `Cc1c(N2CCCC2)cc2c(c1NC(=O)c1ccccc1Cl)C(C)(C)CC2(C)C` ?
15.2 µM (inactive)

Would you mind telling me what GI50 value was observed for `COc1cccc2c1C(=O)c1ccc3cc(CO)cc(O)c3c1C2=O` ?
1.79 µM (inactive)

Would you mind telling me what GI50 value was observed for `O=C(O)Cn1nnc2c(=O)[nH][nH]c(=O)c21` ?
> 100 µM (inactive)

* * *

Give GI50 for every item shown.
System: OVCAR-8
Assay: NCI tumour cell line growth inhibition, 48 h
Active and inactive are the calls of the source. No stated cut-off is given here; in the data, active = GI50 up to about 1.1 µM and inactive = higher.

Would you mind telling me what GI50 value was observed for COc1ccc(C(C)NNC(=O)c2ccncc2)cc1OC (centres undefined) ?
> 100 µM (inactive)

Would you mind telling me what GI50 value was observed for `Cc1ccc(NC(=O)c2cccc([N+](=O)[O-])c2O)c(C)c1` ?
22.9 µM (inactive)

Would you mind telling me what GI50 value was observed for Cc1ccc(S(=O)(=O)OC(C=O)C(O)C(O)COC(c2ccccc2)(c2ccccc2)c2ccccc2)cc1 (centres undefined) ?
13.6 µM (inactive)

Would you mind telling me what GI50 value was observed for `CC(C)C(=O)C(C)(C)CCc1ccccn1` ?
> 100 µM (inactive)

Would you mind telling me what GI50 value was observed for CN[C@@H](C)[C@H](OP(=O)(O)OC1[C@@H](O)[C@H](O)C(O)[C@H](O)[C@@H]1O)c1ccccc1 (some centres undefined) ?
> 100 µM (inactive)

Would you mind telling me what GI50 value was observed for `COC(=O)CCc1cc(OC)c2oc(-c3ccc(OC)c(OC)c3)c(CO)c2c1` ?
> 100 µM (inactive)

Would you mind telling me what GI50 value was observed for O=C(O)CN1C(=O)C(Cc2ccc(O)cc2)N=C(c2cccc(O)c2)c2ccccc21 (centres undefined) ?
> 100 µM (inactive)

Would you mind telling me what GI50 value was observed for `O=C1OC(c2ccc(O)c(F)c2)(c2ccc(O)c(F)c2)c2cccc3cccc1c23` ?
> 25 µM (inactive)

Would you mind telling me what GI50 value was observed for `C[C@]12CC[C@H]3[C@@H](CC=C4C[C@@H](O)CC[C@@]43C)[C@@H]1C/C(=C/c1ccccc1)[C@@H]2O` ?
20.9 µM (inactive)

* * *

System: HT-29
Experiment: NCI tumour cell line growth inhibition, 48 h
Active and inactive are the calls of the source. No stated cut-off is given here; in the data, active = GI50 up to about 1.1 µM and inactive = higher.
Give one outcome, nothing more. List: TRUE (active), FALSE (inactive)

Hi team, can someone confirm the assay call for `CCCc1cn2c(/C=N/NC(=N)N)c(-c3ccc(Cl)c([N+](=O)[O-])c3)nc2s1` ?
TRUE

Hi team, can someone confirm the assay call for COc1c(C)c(C/C=C(\C)CCCC(C)CCCC(C)CCCC(C)C)c(OC)c2ccccc12 (stereo unspecified) ?
FALSE

Hi team, can someone confirm the assay call for `CCc1ccccc1NC(=O)C1=C(C)NC(C)=C(C(=O)Nc2ccccc2CC)C1c1cccc([N+](=O)[O-])c1` ?
FALSE

Hi team, can someone confirm the assay call for C=C1CC(CCCl)(c2ccccc2)OC1=O (stereo unspecified) ?
FALSE

Hi team, can someone confirm the assay call for `CN1CCN(CCn2c3c4ccccc4ccc3c3oc(=O)c4ccccc4c32)CC1` ?
FALSE

Hi team, can someone confirm the assay call for `C[C@@H](CO)OCOCc1ccccc1` ?
FALSE

* * *

System: RXF 393
Experiment: NCI tumour cell line growth inhibition, 48 h
The source made the active and inactive calls. No stated cut-off is given here; in the data, active = GI50 up to about 1.1 µM and inactive = higher.
MEASUREMENT KIND: GI50

Would you mind telling me what GI50 value was observed for `CCC(=N\NC(N)=S)/C(C)=N/O` ?
> 100 µM (inactive)

Would you mind telling me what GI50 value was observed for `O=C(NO)NCCCl` ?
> 100 µM (inactive)

Would you mind telling me what GI50 value was observed for `N#Cc1cccc(Nc2ccccc2SSc2ccccc2Nc2cccc(C#N)c2)c1` ?
> 10 µM (inactive)

Would you mind telling me what GI50 value was observed for `Cc1ccc2nc(/C=N/c3ccc(Cl)cc3)cc(C)c2c1` ?
24.7 µM (inactive)

Would you mind telling me what GI50 value was observed for `Cc1cc2c(C)nn(Cc3ccc(Cl)cc3)c2c(C#N)c1C` ?
45.9 µM (inactive)

Would you mind telling me what GI50 value was observed for `CSCC(COC(C)=O)(CSC)c1ccncc1` ?
> 100 µM (inactive)

Would you mind telling me what GI50 value was observed for CCOP(=O)(OCC)C1CCCOC1=O (configuration not stated) ?
> 100 µM (inactive)

* * *

Test system: SK-OV-3
Assay: NCI tumour cell line growth inhibition, 48 h
Active and inactive are the calls of the source. Rule as the data show it: active = GI50 up to about 1.1 µM and inactive = higher.
MEASUREMENT KIND: GI50

Short answer please: GI50, SK-OV-3, entry `CN(C)C(n1cc2c(c1)-c1ccc(Cl)cc1C(c1ccccc1F)=NC2)n1cc2c(c1)-c1ccc(Cl)cc1C(c1ccccc1F)=NC2`
> 100 µM (inactive)

Short answer please: GI50, SK-OV-3, entry `CN(CCCCN1CCCC1)CCCCN(C)C(=O)Cc1ccc(Cl)c(Cl)c1`
23.6 µM (inactive)

Short answer please: GI50, SK-OV-3, entry `COc1cc(OC)cc(C(=O)NC2=C(Cl)C(=O)c3ccccc3C2=O)c1`
2.49 µM (inactive)

Short answer please: GI50, SK-OV-3, entry C=CC(Br)(CBr)CCC(Br)C(C)(C)Br (centres undefined)
19.4 µM (inactive)

Short answer please: GI50, SK-OV-3, entry OC1=C2c3ccccc3NC2Oc2cc(F)ccc21 (centres undefined)
12.7 µM (inactive)

Short answer please: GI50, SK-OV-3, entry `CN(C)c1nc(N(C)C)nc(N(C)CN(C)c2ccccc2)n1`
> 100 µM (inactive)

Short answer please: GI50, SK-OV-3, entry `COC(=O)c1c(O)ccc2c1c1c(n2Cc2ccc(OC)cc2)C(=O)c2ccccc2C1`
31 µM (inactive)

Short answer please: GI50, SK-OV-3, entry `c1ccc(COc2ccc3[nH]c4c5c6ccccc6nc-5c[nH]c4c3c2)cc1`
18.4 µM (inactive)

Short answer please: GI50, SK-OV-3, entry `COC(=O)c1ccc(/C=C2\Oc3ccccc3C2=O)cc1`
> 100 µM (inactive)
